System: DU-145
Experiment: Antiproliferative activity was determined for 50% growth inhibition against human Prostate DU-145 cell line
Assay type: functional
Settings: Homo sapiens, DU-145
Observation Type: GI50 (µM)
Give the value, in units of µM, as a plain number.

>  <Smiles Data>
O=C1c2ccccc2-c2c1c1ccccc1c(=O)n2CCCO

>  <GI50 / µM>
9.56

$$$$
>  <Smiles Data>
O=C1c2ccccc2-c2c1c1ccccc1c(=O)n2CCO

>  <GI50 / µM>
16.4

$$$$
>  <Smiles Data>
O=C1c2ccccc2-c2c1c1ccccc1c(=O)n2O

>  <GI50 / µM>
40.2

$$$$
>  <Smiles Data>
COc1cc2c3c(n(C)c(=O)c2cc1OC)-c1cc2c(cc1C3)OCO2

>  <GI50 / µM>
42.5

$$$$

Lab book: GI50 of COc1cc2c3c(n(C)c(=O)c2cc1OC)-c1cc2c(cc1C3=O)OCO2 noted as 37

Lab book: GI50 of O=C1c2ccccc2-c2c1c1ccccc1c(=O)n2CCCBr noted as 13

Lab book: GI50 of COc1cc2c3c(n(CCCN)c(=O)c2cc1OC)-c1ccc2ccccc2c1C3=O.Cl noted as 1.64

Lab book: GI50 of CCCCn1c2c(c3cc(OC)c(OC)cc3c1=O)Cc1cc3c(cc1-2)OCO3 noted as 5.37

Lab book: GI50 of O=C1c2cc3c(cc2-c2c1c1ccccc1c(=O)n2CCCCl)OCO3 noted as 12.7
